Consider the following molecules; for each one, report its z-score.
- Protocol Details: up-regulation of insulin promoter-GFP reporter – imaging, high-content screening, mouse beta cells (AID 1625)
- Condition Parameters: MIN6 insulin promoter-GFP reporter, at 5 µM; stronger effect = higher value
The campaign covered roughly 190,000 compounds. About 570 (0.3%) were called active. The sample holds actives, similar compounds and a random draw of the others, so the mix is not that of the screen.

Q: Which z-score value is on record for Cc1ccc(CNC(=O)C2CC(=O)N(C3CCCCCCC3)C2)cc1 (configuration not stated) ?
Result: -0.31 (inactive)

Q: Which z-score value is on record for Cn1ccc(NC(=O)Nc2ccc(Cl)cc2)n1 ?
Result: 0.16 (inactive)

Q: Which z-score value is on record for O=c1c([N+](=O)[O-])cccn1Cc1ccc(F)cc1Cl ?
Result: 3.36 (active)

Q: Which z-score value is on record for Cc1nc(COc2cccc(Cl)c2)sc1C(=O)/C=C/N(C)C ?
Result: 0.55 (inactive)

Q: Which z-score value is on record for CC12CN(NC(=O)c3ccc(Cl)cc3)C3(C#N)CC1CCC23C (configuration not stated) ?
Result: -0.1 (inactive)

Q: Which z-score value is on record for CCOc1ccc(NS(=O)(=O)c2cc(C)c(C)cc2C)cc1 ?
Result: 0.61 (inactive)

Q: Which z-score value is on record for O=C(COC(=O)/C=C/c1ccc2c(c1)OCO2)NC1CCS(=O)(=O)C1 (configuration not stated) ?
Result: -0.06 (inactive)

Q: Which z-score value is on record for CC(C)OCCCNC(=O)C1CC(=O)N(C2CCCCCCC2)C1 (configuration not stated) ?
Result: -0.3 (inactive)

Q: Which z-score value is on record for Cc1ccccc1NC(=S)NNC(=O)c1cccc(Br)c1 ?
Result: 0.03 (inactive)

Q: Which z-score value is on record for COc1ccc(OC)c(-c2csc(NC(=O)C3=NNC(=O)CC3)n2)c1 ?
Result: 1.47 (inactive)

Q: Which z-score value is on record for CCOc1cccc(/C=C/c2ccc3ccccc3n2)c1OC(C)=O ?
Result: -0.46 (inactive)

Q: Which z-score value is on record for O=C1CN(C(=O)COC(=O)c2cnc(Cl)c(Cl)c2)c2ccccc2N1 ?
Result: 0.22 (inactive)

---

- Protocol Details: up-regulation of insulin promoter-GFP reporter – imaging, high-content screening, mouse beta cells (AID 1625)
- Condition Parameters: MIN6 insulin promoter-GFP reporter, at 5 µM; stronger effect = higher value
Hit rate of the full screen: of about 190,000 compounds, about 570 (0.3%) were called active. What follows is part of a selection rich in actives, with near analogues and random picks from the rest.
Note to self: class labels come from recorded z-score, ranges listed here: lower range (below -0.6), middle range (-0.6 to below 0.2), upper range (0.2 or more)

Q: Into which bin does this compound go? Cn1c(SCC(=O)c2ccc(F)cc2)nnc1-c1ccccn1
Result: middle range

Q: Into which bin does this compound go? S=C(NCCc1ccccc1)N1CCn2cccc2C1c1ccncc1 (stereo unspecified)
Result: upper range

Q: Into which bin does this compound go? CCN(CC(=O)Nc1cccc(S(N)(=O)=O)c1)Cc1nc2ccccc2c(=O)[nH]1
Result: upper range

Q: Into which bin does this compound go? CN1CCNC(=O)C1CC(=O)NCCC1=CCCCC1 (stereo unspecified)
Result: upper range

Q: Into which bin does this compound go? CC(C)CN(CC(C)C)CC(O)CN(c1ccccc1)S(=O)(=O)c1ccccc1[N+](=O)[O-] (stereo unspecified)
Result: lower range

Q: Into which bin does this compound go? O=S(=O)(c1ccc(Cl)cc1)N1CCCN(c2ccc(C(F)(F)F)cn2)CC1
Result: lower range

Q: Into which bin does this compound go? COc1cc2c(C(=O)N3CCN(C)CC3)c(CSc3ccccc3)n(C)c2cc1Br
Result: lower range

Q: Into which bin does this compound go? O=C(Cc1cccc2ccccc12)NCCC1=CCCCC1
Result: middle range

Q: Into which bin does this compound go? O=C(Cc1nn[nH]n1)NCCC1=CCCCC1
Result: lower range

Q: Into which bin does this compound go? NS(=O)(=O)c1ccc(NC(=O)COC(=O)c2cc3ccccc3oc2=O)cc1
Result: upper range

Q: Into which bin does this compound go? CSc1nc(-c2ccco2)nn1C(=O)c1ccccc1Cl
Result: middle range

---

- Protocol Details: up-regulation of insulin promoter-GFP reporter – imaging, high-content screening, mouse beta cells (AID 1625);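 as to cell count: total cells summed across four imaged fields per well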
- Condition Parameters: MIN6 insulin promoter-GFP reporter, at 5 µM; measured here: cytotoxicity, nuclei count
About 570 (0.3%) of roughly 190,000 compounds were called active. The entries come from a sample that favours actives as a whole.
Measured Property: cell count (cells)
Numeric only. Scale: cells

Q: Which cell count value is on record for COCCNC(=O)c1onc(CSc2cccc(C)c2)c1C(=O)O ?
Result: 1620

Q: Which cell count value is on record for O=C(Cn1c(N2CCN(C/C=C/c3ccccc3)CC2)nc2ccccc21)c1ccccc1 ?
Result: 1150

Q: Which cell count value is on record for CC(C)N1CCC(NC(=O)Nc2ccccc2)CC1 ?
Result: 1410

Q: Which cell count value is on record for O=C(CCCN1C(=O)/C(=C/c2ccccc2)SC1=S)Nc1ccc(O)cc1 ?
Result: 1550

Q: Which cell count value is on record for CCn1c(Cc2cccs2)nnc1SCC(=O)c1ccc(C)cc1 ?
Result: 827

Q: Which cell count value is on record for O=C(Nc1nnc(SCc2c(Cl)cccc2Cl)s1)c1cccc([N+](=O)[O-])c1 ?
Result: 1070

Q: Which cell count value is on record for O=C(CCCN1C(=O)/C(=C\c2ccccc2)SC1=S)Nc1ccccc1O ?
Result: 1110

Q: Which cell count value is on record for COC(=O)c1sccc1NC(=O)c1cc(OC)c(OC)c(OC)c1 ?
Result: 1440

Q: Which cell count value is on record for COCc1cc(=O)[nH]c(SC)n1 ?
Result: 1140

Q: Which cell count value is on record for COc1ccc(OC)c(-c2c(=O)n(OCc3ccccc3Br)c3ccccc3[n+]2[O-])c1 ?
Result: 1330

Q: Which cell count value is on record for COc1ccc(-n2c(SCC(=O)OC(C)C)nnc2-c2ccccn2)cc1 ?
Result: 1260

Q: Which cell count value is on record for COC(=O)c1sccc1NC(=O)COc1ccc(Cl)cc1 ?
Result: 2220

Q: Which cell count value is on record for Cn1ccc(NC(=O)Nc2ccc(Cl)cc2)n1 ?
Result: 1320

Q: Which cell count value is on record for CCN(CC(=O)Nc1cccc(S(N)(=O)=O)c1)Cc1nc2ccccc2c(=O)[nH]1 ?
Result: 1090

Q: Which cell count value is on record for Cc1ccc(-n2c(Cc3cccs3)nnc2SCC(=O)OC(C)C)cc1 ?
Result: 993

Q: Which cell count value is on record for O=C(O)C#Cc1cccc2ccccc12 ?
Result: 952

Q: Which cell count value is on record for COc1ccccc1N1CCN(C(=O)CSc2ncnc3c2cnn3-c2ccc(C)c(C)c2)CC1 ?
Result: 959

Q: Which cell count value is on record for O=S(=O)([N-]c1nc2ccccc2nc1-[n+]1ccc(Cc2ccccc2)cc1)c1ccc(Br)s1 ?
Result: 1020

Q: Which cell count value is on record for CCc1ccc(NC(=O)N[C@H](C(=O)O)C(C)CC)cc1 (stereo partly specified) ?
Result: 978

Q: Which cell count value is on record for CC1Cc2ccccc2N1S(=O)(=O)c1ccc(Cl)nc1 (stereo unspecified) ?
Result: 1130

Q: Which cell count value is on record for O=C(COC(=O)/C=C/c1ccc2c(c1)OCO2)NC1CCS(=O)(=O)C1 (stereo unspecified) ?
Result: 933

Q: Which cell count value is on record for COC(=O)c1sccc1NC(=O)c1csc2c1CCCC2 ?
Result: 1260

Q: Which cell count value is on record for O=C1CC(c2ccccc2)CC(O)=C1C=NCCN1CCOCC1 (stereo unspecified) ?
Result: 1300

Q: Which cell count value is on record for O=C1CCCC(O)=C1C=NCCc1ccccc1 ?
Result: 1000

Q: Which cell count value is on record for CCOc1cccc(SCc2noc(C(=O)NC(C)C)c2C(=O)O)c1 ?
Result: 1590

Q: Which cell count value is on record for Cc1cc(C)c(NC(=O)CN2C(=O)NC(Cc3ccccc3)C2=O)c(C)c1 (stereo unspecified) ?
Result: 1480

Q: Which cell count value is on record for CC(C)NC(=O)/C(C#N)=C\c1ccc(N(C)C)c(Br)c1 ?
Result: 1460

Q: Which cell count value is on record for Fc1ccc(/C=N/Nc2nc(-c3cccnc3)nc3ccccc23)cc1 ?
Result: 1030

Q: Which cell count value is on record for NS(=O)(=O)c1ccc(NC(=O)COC(=O)c2cc3ccccc3oc2=O)cc1 ?
Result: 1430

Q: Which cell count value is on record for CC12CN(NC(=O)c3ccc(Cl)cc3)C3(C#N)CC1CCC23C (stereo unspecified) ?
Result: 1610

Q: Which cell count value is on record for CN(C)/C=C1/Nc2ccccc2C1=O ?
Result: 636

Q: Which cell count value is on record for Oc1ccc(/C=N/Nc2nc(-c3ccccc3F)nc3ccccc23)c(O)c1 ?
Result: 1070

Q: Which cell count value is on record for COC(=O)c1scc(S(=O)(=O)C(C)(C)C)c1-n1cccc1 ?
Result: 1430

Q: Which cell count value is on record for O=C1N(c2ccccc2)C(=Nc2ccccc2)SC12CC2 ?
Result: 1070

Q: Which cell count value is on record for Cc1ccc(OCC(=O)c2cc(C)n(Cc3ccco3)c2C)c([N+](=O)[O-])n1 ?
Result: 717

Q: Which cell count value is on record for O=C(CSc1nc2ccccc2s1)Nc1ccc(C(=O)O)cc1 ?
Result: 1290

Q: Which cell count value is on record for COc1cc(SC)ccc1C(=O)Nc1cc(C)ccn1 ?
Result: 1210

Q: Which cell count value is on record for CCOC(=O)C1CCN(C(=O)Nc2ccc(C)c(Cl)c2)CC1 ?
Result: 1020

Q: Which cell count value is on record for COc1ccc(OC)c(-c2csc(NC(=O)C3=NNC(=O)CC3)n2)c1 ?
Result: 1110

Q: Which cell count value is on record for CCOC(=O)C1CCN(C(=O)Nc2cccc(OC)c2)CC1 ?
Result: 1010

Q: Which cell count value is on record for O=C(CCn1nnc2ccccc2c1=O)N[C@@H](Cc1c[nH]c2ccccc12)C(=O)O ?
Result: 1030

Q: Which cell count value is on record for Nc1nc(O)c(CC(=O)O)s1 ?
Result: 1490

Q: Which cell count value is on record for CCOc1ccc(NS(=O)(=O)c2cc(C)c(C)cc2C)cc1 ?
Result: 1460

Q: Which cell count value is on record for Clc1ccc2nc(-c3ccccc3)nc(C(Cl)Cl)c2c1 ?
Result: 892

Q: Which cell count value is on record for COc1ccc(OC)c(S(=O)(=O)NCCC(C)C)c1 ?
Result: 1220

Q: Which cell count value is on record for Cc1cc(C)nc(N2CCC(C(=O)Nc3ccc4c(c3)OCCO4)CC2)n1 ?
Result: 1130
